tested on: Rattus norvegicus; assay: Antihypertensive activity in spontaneously hypertensive rats was measured as average blood pressure at 100 mg/kg, p.o. after 24 hours of postdose-2; assay type: functional; settings: route oral
test_readout: BP (mmHg)
Give just the number in mmHg; leave the unit off.

Consider the following illustrative entries.
chemical_string: CC(=O)c1c(-c2ccc(Cl)cc2)c(-c2ccc(Cl)cc2)nn(CCOC(=O)CN)c1=O.Cl
experimental_system: Rattus norvegicus
BP [mmHg]: 166
//
chemical_string: CC(=O)c1c(-c2ccc(Cl)cc2)c(-c2ccc(Cl)cc2)nn(CCO)c1=O
experimental_system: Rattus norvegicus
BP [mmHg]: 193
//
chemical_string: C[C@](N)(Cc1ccc(O)c(O)c1)C(=O)O
experimental_system: Rattus norvegicus
BP [mmHg]: 166

Below: the item to evaluate.
Lookup: Which BP is listed for `CC(=O)OCCn1nc(-c2ccc(Cl)cc2)c(-c2ccc(Cl)cc2)c(C(C)=O)c1=O` ?
Found: 143
